The origin of these recorded values is the array DNA melting data of Ke et al. (doi:10.1101/2024.01.08.574731).

Known Tm of a selection of sequences
assay: melting temperature; fluorescence melt of hairpins on a sequencing array, two-state fit, raised by 9.35 °C to match UV melts
assay conditions: sodium 0.088 M
Reply numerically in °C, unit not repeated.

Some entries whose results are on file:
sequence | Tm [°C]
GATCGCTCTCGCGATC ((((((....)))))) | 67.6
GTGTATGGAAACGTACAC (((((.(....).))))) | 47.2

Noted for GATGCGGGAAACCGCACC (.(((((....))))).) : its Tm reads 42.9

For record GTTCTCGAAAGAGAAAC ((((((....))).))) the listed Tm is 39.7
